target or system: S. pyogenes SKKanGAS, kanamycin survival, BacTiterGlo, 6 h
method: S. pyogenes SKKanGAS kanamycin growth inhibitors – SKKanGAS strain, luminescence, dose confirmation, streptokinase promoter inhibitor project, dose response (AID 1902);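 note: lower survival reflects blocked streptokinase promoter driving kanamycin resistance gene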
Active and inactive are the calls of the source.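 Rule for the calls: active = EC50 no more than a set limit of log units above the highest dose; inactive = the rest.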
Classes used: active, inactive

[
  {
    "compound string": "CCc1ccc(/C=C2\\SC(=S)N(CCCC(=O)Nc3ccccc3C(=O)O)C2=O)cc1",
    "qualitative label": "active"
  },
  {
    "compound string": "O=C1C=C(N2CCCCC2)c2ccccc2C1=O",
    "qualitative label": "active"
  },
  {
    "compound string": "O=C(Nc1nccs1)c1sc2ccccc2c1Cl",
    "qualitative label": "inactive"
  },
  {
    "compound string": "COc1ccc(-c2csc(NC(=S)NC(=O)c3cccs3)n2)cc1OC",
    "qualitative label": "active"
  },
  {
    "compound string": "Nc1nc(N)c2cc(Sc3ccc4ccccc4c3)ccc2n1",
    "qualitative label": "active"
  },
  {
    "compound string": "CN(C)c1nc(N/N=C/c2ccccc2O)nc(Nc2ccc(F)cc2)n1",
    "qualitative label": "active"
  },
  {
    "compound string": "Cc1cc(C)c(OCC(=O)N2CCN(c3ncc(C(F)(F)F)cc3Cl)CC2)c(C)c1",
    "qualitative label": "active"
  },
  {
    "compound string": "O=C(Nc1cccc(Cl)c1N1CCCC1)c1ccc(Br)o1",
    "qualitative label": "active"
  }
]

Source: PubChem BioAssay AID1902
